Please go through the items and note down their polymerase ribozyme fitness (log ratio).
B1: TPR 5TU (parent)
chain: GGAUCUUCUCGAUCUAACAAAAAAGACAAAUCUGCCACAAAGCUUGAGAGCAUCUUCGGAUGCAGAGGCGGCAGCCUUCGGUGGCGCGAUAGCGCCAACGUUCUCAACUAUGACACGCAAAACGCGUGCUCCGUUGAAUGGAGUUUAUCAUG

- Variants of: B1
- EXPERIMENTAL PROTOCOL: polymerase ribozyme fitness, log enrichment relative to wild type (log ratio); higher = more active; in vitro selection for triplet polymerase activity
This sample holds only a part of the variants without activity.

Exercise: Query (variant): G88C G117C A138U G143C ; field requested: polymerase ribozyme fitness (log ratio)
Key: ≤ -4.2

Exercise: Also check C85U A91C C105U
Key: ≤ -4.2

Exercise: Same read-out for G42C C95A C99G A107U ?
Key: ≤ -4.2

Exercise: Next entry: A26U C35A U104G A150C
Key: ≤ -4.2

Exercise: Try the variant A3G C75A C93A A97U A98U U101G C118U
Key: ≤ -4.2

Exercise: Also G11C G50A U56A G83U C93A U127C U135C ?
Key: ≤ -4.2

Exercise: What do you have for U6G G59U U61A C72U A89G U90A C93G C108U A122U ?
Key: ≤ -4.2

Exercise: Next record, please: C14G U15A C54U C69A C99A U148A
Key: ≤ -4.2

Exercise: Now the variant G62A C76A C79A C96A
Key: ≤ -4.2

Exercise: Continue with U13C C57A G58A A66G U82G C116U
Key: ≤ -4.2

Exercise: Param item: A29U A49C G68U A73C A91C C103G
Key: ≤ -4.2

Exercise: How about G86C G126U C131A ?
Key: ≤ -4.2

Exercise: Consider next the variant C32A A37C in the same way.
Key: ≤ -4.2
